- MEASUREMENT_TARGET: D2 dopamine receptor (Rattus norvegicus)
- Construct: rat striatal membranes; from tissue; host or cells: rat striatum membranes
- Sequence (P61169 whole entry): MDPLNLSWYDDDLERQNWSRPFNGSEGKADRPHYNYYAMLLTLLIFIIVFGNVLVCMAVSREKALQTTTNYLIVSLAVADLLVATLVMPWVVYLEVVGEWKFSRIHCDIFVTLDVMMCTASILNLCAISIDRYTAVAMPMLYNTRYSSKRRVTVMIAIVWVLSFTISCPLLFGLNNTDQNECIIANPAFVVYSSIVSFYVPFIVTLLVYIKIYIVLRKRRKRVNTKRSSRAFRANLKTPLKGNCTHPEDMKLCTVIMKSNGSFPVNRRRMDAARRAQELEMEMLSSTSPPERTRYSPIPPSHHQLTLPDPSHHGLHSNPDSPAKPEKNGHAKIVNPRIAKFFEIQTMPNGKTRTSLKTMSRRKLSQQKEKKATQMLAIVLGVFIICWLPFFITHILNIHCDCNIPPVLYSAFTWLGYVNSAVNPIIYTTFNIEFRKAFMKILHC
- ASSAY_NAME: Dopamine D2 binding assay ([3H]Sulpiride)
Please assign rule not met whenever Ki is at or above 2 nM, and rule met whenever it is below.

Q: Consider Oc1ccc2c(c1O)CC[C@@H]1[C@@H]2CCCN1CCc1ccccc1 (relative stereo) [trans-9] . Does its Ki lie strictly below 2 nM?
Result: rule not met

Q: Consider Oc1cccc2c1CC[C@@H]1[C@@H]2CCCN1CCc1ccccc1 (single isomer, unassigned) [trans-(-)-25] . Does its Ki lie strictly below 2 nM?
Result: rule met

Q: Consider Oc1ccc2c(c1O)CC[C@@H]1[C@H]2CCCN1CCc1ccccc1 (relative stereo) [cis-9] . Does its Ki lie strictly below 2 nM?
Result: rule not met

Q: Consider Oc1cccc2c1CC[C@H]1[C@H]2CCCN1CCc1ccccc1 (relative stereo) [trans-25] . Does its Ki lie strictly below 2 nM?
Result: rule met

Q: Consider Oc1ccc2c(c1O)CC[C@@H]1[C@@H]2CCCN1CCc1cccs1 (relative stereo) [trans-33] . Does its Ki lie strictly below 2 nM?
Result: rule not met

Q: Consider Oc1ccc2c(c1O)CC[C@H]1[C@H]2CCCN1CCc1ccccc1 (single isomer, unassigned) [trans-(-)-9] . Does its Ki lie strictly below 2 nM?
Result: rule met

Q: Consider Oc1ccc2c(c1O)CC[C@@H]1[C@H]2CCCN1CCc1ccccc1 (single isomer, unassigned) [cis-(-)-9] . Does its Ki lie strictly below 2 nM?
Result: rule not met

Q: Consider Oc1cccc2c1CC[C@H]1[C@@H]2CCCN1CCc1ccccc1 (relative stereo) [cis-25] . Does its Ki lie strictly below 2 nM?
Result: rule not met

Q: Consider Oc1cccc2c1CC[C@@H]1[C@@H]2CCCN1CCc1cccs1 (relative stereo) [trans-31] . Does its Ki lie strictly below 2 nM?
Result: rule met
